ASSAYED_SYSTEM: T1, cynomolgus SIRP-α D1 domain (cyno2) (cynomolgus monkey, UniProt Q5TFQ8 30-148 (human entry), limits assumed)
T1 chain: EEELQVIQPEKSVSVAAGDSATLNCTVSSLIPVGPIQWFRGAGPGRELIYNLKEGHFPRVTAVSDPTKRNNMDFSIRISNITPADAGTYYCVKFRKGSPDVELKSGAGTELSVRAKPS
MEASUREMENT_NOTES: SPR, Langmuir fit
Overview of reported koff across a group of binders:
Output spec: scalar in s⁻¹, unitless text.

Value lookup for koff; key = S214 (scFv, V domains shown) VH: DVQLVESEGGVVRPGESLRLSCEASGFTFRNSYMTWVRQAPGEGLEWVSTISDTGDTAYYADSVKGRFTISRDNSKNSLYLQMNSLRAEDTAIYYCAKSWIWWTFFDYWGLGTLVTVSS VL: ALTQPASVSANLGGTVEITCSGGNSNHYGWYQQKSPGSAPVTLIYADTNRPSNIPSRFSGSTSGSTSTLTITGVQAEDEAVYYCGGSSTGDGIFGAGTTLTVL 0.00271

Entry to check: S55 (scFv, V domains shown, also called clone 55) VH: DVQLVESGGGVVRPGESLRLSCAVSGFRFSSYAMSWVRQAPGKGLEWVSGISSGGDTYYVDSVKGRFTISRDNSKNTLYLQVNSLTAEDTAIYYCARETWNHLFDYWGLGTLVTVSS VL: ALTQPASVSANLGETVEITCSGGDSSSHYYGWYQQKSPGSAPVTVIYSDDERPSDIPSRFSGSASGSTATLTITGVRVEDEAIYYCGAYDGSTYANTFGAGTTLTVL 0.000116

Likewise for S71 (scFv, V domains shown, also called clone 71) VH: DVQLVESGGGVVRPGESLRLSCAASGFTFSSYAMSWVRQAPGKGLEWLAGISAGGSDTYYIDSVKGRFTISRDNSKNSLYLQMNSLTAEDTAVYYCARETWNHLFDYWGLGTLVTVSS VL: ALTQPASVSANPGETVKITCSGGGYYSTYYGWYQQKSPGSAPVTVIHSDDKRPSDIPSRFSGSASGSAATLTITGVRVEDEAVYYCAGYDARTYINTFGAGTTLTVL ? 0.000313
